# TGT: Hum GALR2 (Homo sapiens, UniProt O43603)
# Construct: expressed in transfected cells; host or cells: CHO
# Sequence (O43603 whole entry): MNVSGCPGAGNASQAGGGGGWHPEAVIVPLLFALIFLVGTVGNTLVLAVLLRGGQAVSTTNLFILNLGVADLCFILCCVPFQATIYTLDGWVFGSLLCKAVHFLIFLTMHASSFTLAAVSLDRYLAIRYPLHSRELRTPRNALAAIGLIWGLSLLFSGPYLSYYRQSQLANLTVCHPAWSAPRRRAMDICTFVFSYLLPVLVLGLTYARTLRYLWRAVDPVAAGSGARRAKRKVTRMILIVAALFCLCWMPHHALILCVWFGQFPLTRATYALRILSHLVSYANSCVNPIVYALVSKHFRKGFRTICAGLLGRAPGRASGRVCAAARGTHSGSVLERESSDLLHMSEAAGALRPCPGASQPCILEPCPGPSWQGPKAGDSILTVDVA
# PROTOCOL: porcine 125I-galanin binding assay, Hum GALR2 CHO
# CONDITIONS_USED: read-out: Ki (nM) Hum GALR2 CHO; Table 10
No end group written: not given here.
MEASURED_METRIC: Ki

Task item: API: value(readout=Ki, system=Hum GALR2 (Homo sapiens, UniProt O43603)) for record TLNSAGYLLGPHAVGNHRSFSDKNGLTS [human galanin 3-30]
Reply: > 1000 nM
